PROTOCOL SUMMARY: protein stability index of a GFP-peptide fusion (GPS, HEK-293T) (PSI 1-6); higher = more stable;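 further: 24-mer peptide tiles fused after GFP, lentivirally expressed, FACS-sorted into six equal bins by GFP/DsRed ratio, decoded by Illumina sequencing, PSI is the read-weighted mean bin number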
CONDITION: treatment: DMSO; c terminus: a fixed tail appended
protein stability index listing for selected sequences.
Number, no unit, nothing else.

stdin: Please report the recorded protein stability index for RAACFDGHLEIVKYLVEHKADLEV [FEM1C] .
stdout: 2.59

stdin: And the next one, YLLMVTVILLPYVSKVTGWCRDRL [TMEM175] ?
stdout: 3.27

stdin: Next record, please: LLDFMCRIIPNFYPPLEGHVRQGV [INTS3]
stdout: 3.31

stdin: Then this sequence: MPSPCSCMSFNPETRRLSIGLDNG [WDFY2]
stdout: 3.19

stdin: Ok, now ERGSMKTHFNTAQGFRTVLELVIN [OAS1]
stdout: 2.13

stdin: Moving on to the next sequence: EGATLLLRGLCANTVLRFLDLKGN [LRRC45]
stdout: 2.6

stdin: Thanks! And PASGSGADSEPARHIFSFSWLNSL [TRIM55] ?
stdout: 2.36
